Property: pKd; scope: individual binders
Molecular target: T1, DLG3_2, Q92796
T1 sequence (Q92796 221-321, limits assumed, looked up): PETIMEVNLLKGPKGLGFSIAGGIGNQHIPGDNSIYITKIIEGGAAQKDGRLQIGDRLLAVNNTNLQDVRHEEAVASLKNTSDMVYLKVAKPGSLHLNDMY
Test: holdup assay
Design: key: below the threshold = too weak to quantify, mostly under pKd 3.1 to 4
Conditions: plain residues with an end cap or a label only (N-terminal biotin on a linker: ahx)
// response body must contain only the number

{"columns": ["binder", "pKd"],
 "data": [
  ["TVICWPGSLV [LNX2, Q8N448]", 4.07]
]}

Request: Tell me its pKd given LSDPSVSTVV [GRIN1, Q05586;Q05586-2] as the entry.
Response: 4.58

Request: Tell me its pKd given GYDWGPATDL [TJP3, O95049] as the entry.
Response: 3.78

Request: Tell me its pKd given HNAFLSVTTV [PDZRN4, Q6ZMN7] as the entry.
Response: 3.61
